# target desc: KRAS G13D (Homo sapiens, UniProt P01116+P62937, G13D)
# Sequence (P01116 1-169 isoform P01116-2 G13D limits assumed): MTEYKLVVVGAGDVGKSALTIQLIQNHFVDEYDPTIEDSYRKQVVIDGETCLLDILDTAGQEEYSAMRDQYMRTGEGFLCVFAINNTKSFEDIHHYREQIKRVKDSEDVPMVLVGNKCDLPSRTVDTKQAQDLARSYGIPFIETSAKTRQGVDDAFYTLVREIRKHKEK
# Sequence (P62937 whole entry): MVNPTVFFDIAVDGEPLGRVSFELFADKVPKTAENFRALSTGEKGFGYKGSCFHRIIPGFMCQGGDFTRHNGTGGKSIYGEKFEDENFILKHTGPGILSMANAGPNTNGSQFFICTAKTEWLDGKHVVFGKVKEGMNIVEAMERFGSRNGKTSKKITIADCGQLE
# experimental details: Ras-Raf disruption / FRET / MOA assay (BRAF RBD)
# Assay type: biochemical
# settings: KRAS G13D FRET data IC50, Ras-Raf disruption, with Cyclophilin A
# Excerpt: Disruption of […] Ras-binding Domain (BRAF^RBD) Interaction with K-Ras by Compounds of the Invention (also Called a FRET Assay or an MOA Assay) Note—The following protocol describes a procedure for monitoring disruption of K-Ras G12C (GMP-PNP) binding to BRAF^RBD by a compound of the invention. This protocol may also be executed substituting other Ras proteins or nucleotides, such as K-Ras G12D and K-Ras G13D. […]
pIC50: −log10 of the molar value.
assay metric: pIC50

>>> readout_value("CCn1c(-c2cccnc2[C@H](C)OC)c2c3cc(ccc31)-c1cc(O)cc(c1)C[C@H](NC(=O)[C@H](C(C)C)N(C)C(=O)CN(C)C(=O)[C@@H]1N[C@H]1COC)C(=O)N1CCC[C@H](N1)C(=O)OCC(C)(C)C2")
"7.00 to 8.00"

Value lookup for pIC50; key = CCn1c(-c2cccnc2[C@H](C)OC)c2c3cc(ccc31)-c1cc(O)cc(c1)C[C@H](NC(=O)[C@H](C(C)C)N(C)C(=O)CN(C)C(=O)[C@H]1N[C@@H]1C1COC1)C(=O)N1CCC[C@H](N1)C(=O)OCC(C)(C)C2
7.00 to 8.00

Value lookup for pIC50; key = CCn1c(-c2cccnc2[C@H](C)OC)c2c3cc(ccc31)-c1cc(O)cc(c1)C[C@H](NC(=O)[C@H](C(C)C)N1CC[C@H](NC(=O)[C@H]3CN3)C1=O)C(=O)N1CCC[C@H](N1)C(=O)OCC(C)(C)C2
6.00 to 7.00

Value lookup for pIC50; key = CCn1c(-c2cccnc2[C@H](C)OC)c2c3cc(ccc31)-c1cc(O)cc(c1)C[C@H](NC(=O)[C@H](C(C)C)N(C)C(=O)[C@H]1CCN1C(=O)[C@H]1CN1)C(=O)N1CCC[C@H](N1)C(=O)OCC(C)(C)C2
7.00 to 8.00
